Where do the numbers come from? From the supplement of paper PMC9262897.

tested on: E. coli TESEC Alr+ wild-type control; test: growth (OD600 after 10 h); higher = more growth (less inhibition); conditions: compound 0.1 mM; raw OD600 reference: median of DMSO wells 0.49, cell-free background 0.052
Where a name gives a salt, the structure may show the parent alone.
Property Name: growth

{"Molecule": "CCOC(=O)N1CCC(=C2c3ccc(Cl)cc3CCc3cccnc32)CC1", "Test Value": 0.402}
{"Molecule": "Cc1c(NC(C)C)c(=O)n(-c2ccccc2)n1C [Isopyrin hydrochloride]", "Test Value": 0.44}
{"Molecule": "COc1ccc(C2CNC(=O)C2)cc1OC1CCCC1 (stereo not drawn)", "Test Value": 0.623}
{"Molecule": "CNC(=C[N+](=O)[O-])NCCSCc1ccc(CN(C)C)o1 [Ranitidine hydrochloride]", "Test Value": 0.485}
{"Molecule": "CC(C)NC(=N)NC(=N)Nc1ccc(Cl)cc1 [Proguanil hydrochloride]", "Test Value": 0.475}
{"Molecule": "CNCCCC1c2ccccc2C=Cc2ccccc21 [Protriptyline hydrochloride]", "Test Value": 0.558}
{"Molecule": "C[C@H](CCC(=O)O)[C@H]1CC[C@H]2[C@@H]3[C@@H](O)C[C@@H]4C[C@H](O)CC[C@]4(C)[C@H]3CC[C@]12C", "Test Value": 0.406}
{"Molecule": "NCCC[C@H](N)CC(=O)N[C@H]1CNC(=O)[C@H]([C@H]2C[C@H](O)NC(N)=N2)NC(=O)/C(=C/NC(N)=O)NC(=O)[C@H](CO)NC(=O)[C@H](CO)NC1=O [Viomycin sulfate]", "Test Value": 0.193}

---

test system: E. coli TESEC Mtb Alr; test: growth (OD600 after 10 h); higher = more growth (less inhibition); settings: arabinose 10000000 nM; compound 0.1 mM; raw OD600 reference: median of DMSO wells 0.146, cell-free background 0.041
Where a name gives a salt, the structure may show the parent alone.
Property Name: growth

{"Compound": "CO[C@@H]1[C@@H](OC(N)=O)[C@@H](O)[C@H](Oc2ccc3c(O)c(NC(=O)c4ccc(O)c(CC=C(C)C)c4)c(=O)oc3c2C)OC1(C)C [Novobiocin sodium salt]", "Property Name": "growth", "Test Value": 0.0423}
{"Compound": "CC1=C(C(=O)O)N2C(=O)[C@@H](NC(=O)[C@H](N)c3ccc(O)cc3)[C@H]2SC1", "Property Name": "growth", "Test Value": 0.137}
{"Compound": "CC(C(=O)O)c1ccc(C(=O)c2cccs2)cc1 (centres undefined)", "Property Name": "growth", "Test Value": 0.138}
{"Compound": "Nc1cc(C(Cl)=C(Cl)Cl)c(S(N)(=O)=O)cc1S(N)(=O)=O", "Property Name": "growth", "Test Value": 0.15}

---

Reported growth is given for each of the following compounds.
system: E. coli TESEC Mtb Alr; assay: growth (OD600 after 10 h); higher = more growth (less inhibition); conditions: arabinose 1000 nM; compound 0.1 mM; raw OD600 reference: median of DMSO wells 0.294, cell-free background 0.041
Structures can show the parent of a compound that is named as a salt.

{"Compound": "CN1CCc2cccc3c2[C@H]1Cc1ccc(O)c(O)c1-3 [R(-) Apomorphine hydrochloride hemihydrate]", "Assayed System": "E. coli TESEC Mtb Alr", "growth": 0.292}
{"Compound": "CCN(CC)C(=O)C1(c2ccccc2)CC1CN (stereo not given) [Milnacipran hydrochloride]", "Assayed System": "E. coli TESEC Mtb Alr", "growth": 0.298}
{"Compound": "Cc1nc2n(c(=O)c1CCN1CCC(c3noc4cc(F)ccc34)CC1)CCCC2 [Risperidone]", "Assayed System": "E. coli TESEC Mtb Alr", "growth": 0.305}
{"Compound": "CN(C)CCOC1=Cc2ccccc2Sc2ccc(Cl)cc21 [Zotepine]", "Assayed System": "E. coli TESEC Mtb Alr", "growth": 0.186}
{"Compound": "Cn1c(=O)c2[nH]cnc2n(C)c1=O [Aminophylline]", "Assayed System": "E. coli TESEC Mtb Alr", "growth": 0.292}
